Settings: 318.15 K; 97.6 kPa; Liquid; Vibrating tube method
Class 1.0: mass density at least 1000 kg/m3. Class 0.0: mass density below 1000 kg/m3.

CN(C)C=O [dimethylformamide]	0.0
C[S+](C)[O-] [dimethyl sulfoxide]	1.0
CC(=O)N(C)C [N,N-dimethylethanamide]	0.0
c1ccncc1 [pyridine]	0.0

---

Details: 343.15 K; 97.6 kPa; Liquid; Capillary tube (Ostwald / Ubbelohde) method
Entries and their viscosity
quantity: viscosity (mPa·s)

CN(C)C=O [dimethylformamide]	0.51
c1ccncc1 [pyridine]	0.53
C[S+](C)[O-] [dimethyl sulfoxide]	0.99
CCCCCCCC[n+]1ccn(C)c1.[Cl-] [1-methyl-3-octylimidazolium chloride]	316.66
CC(=O)N(C)C [N,N-dimethylethanamide]	0.57

---

Details: 323.15 K; 97.6 kPa; Liquid; Capillary tube (Ostwald / Ubbelohde) method
Binary label based on viscosity with cut-off 0.7 mPa·s: below gives class 1, not below gives class 0.

c1ccncc1	class 1
CN(C)C=O [dimethylformamide]	class 1
CCCCCCCC[n+]1ccn(C)c1.[Cl-] [1-methyl-3-octylimidazolium chloride]	class 0
C[S+](C)[O-] [dimethyl sulfoxide]	class 0

---

Settings: 313.15 K; 97.6 kPa; Liquid; Vibrating tube method
Numbers after ± are expanded uncertainties.
quantity: mass density

CN(C)C=O [dimethylformamide]	929.64 ± 1.9 kg/m3
c1ccncc1	963.02 ± 1.9 kg/m3
CCCCCCCC[n+]1ccn(C)c1.[Cl-] [1-methyl-3-octylimidazolium chloride]	1000.48 ± 2.1 kg/m3
CC(=O)N(C)C [N,N-dimethylethanamide]	922.66 ± 2 kg/m3
C[S+](C)[O-] [dimethyl sulfoxide]	1080.3 ± 2.2 kg/m3

---

Settings: 348.15 K; 97.6 kPa; Liquid; Capillary tube (Ostwald / Ubbelohde) method
quantity: viscosity (mPa·s)

C[S+](C)[O-] [dimethyl sulfoxide]	0.93
CC(=O)N(C)C [N,N-dimethylethanamide]	0.54
CCCCCCCC[n+]1ccn(C)c1.[Cl-] [1-methyl-3-octylimidazolium chloride]	237.14
c1ccncc1 [pyridine]	0.51
CN(C)C=O [dimethylformamide]	0.49

---

Details: 333.15 K; 97.6 kPa; Liquid; Vibrating tube method
# Lookup of reported mass density keyed by entry
quantity: mass density (kg/m3)

CN(C)C=O [dimethylformamide]	910.44
CC(=O)N(C)C [N,N-dimethylethanamide]	904.16
c1ccncc1 [pyridine]	942.72
CCCCCCCC[n+]1ccn(C)c1.[Cl-] [1-methyl-3-octylimidazolium chloride]	989.17
C[S+](C)[O-] [dimethyl sulfoxide]	1060.34

---

Conditions: 318.15 K; 97.6 kPa; Liquid; Capillary tube (Ostwald / Ubbelohde) method
Each entry below lists one item and its recorded log10 viscosity value.
quantity: log10 viscosity (log10 of the value in mPa·s)

CCCCCCCC[n+]1ccn(C)c1.[Cl-] [1-methyl-3-octylimidazolium chloride]	3.25
CN(C)C=O [dimethylformamide]	-0.19
c1ccncc1	-0.15
CC(=O)N(C)C [N,N-dimethylethanamide]	-0.13
C[S+](C)[O-] [dimethyl sulfoxide]	0.15

---

Settings: 338.15 K; 97.6 kPa; Liquid; Capillary tube (Ostwald / Ubbelohde) method
quantity: log10 viscosity (log10 of the value in mPa·s)

CN(C)C=O [dimethylformamide]	-0.27
CC(=O)N(C)C [N,N-dimethylethanamide]	-0.22
CCCCCCCC[n+]1ccn(C)c1.[Cl-] [1-methyl-3-octylimidazolium chloride]	2.63
C[S+](C)[O-] [dimethyl sulfoxide]	0.03
c1ccncc1	-0.25
